Test Description: enhancers of glutamate uptake in motor neurons, MN-1 cell line (AID 1612);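 note: tested at 1 µM final; 0% = mean of DMSO vehicle wells on each plate; positive means more glutamate uptake than control and negative means less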
Conditions Used: MN-1 motor neuron cells, stronger effect = higher value
Readout Kind: glutamate uptake change (%)
Give the value, in units of %, as a plain number.

Worked set:
1) C[C@]12C=CC(=O)C=C1CCC1C2[C@@H](O)C[C@@]2(C)C1CC[C@]2(O)C(=O)CO (stereo partly drawn): 9.97
2) CN[C@@H]1C(O)[C@@H](O[C@@H]2[C@@H](O)[C@H](O[C@H]3OC(CN)=CC[C@H]3N)[C@@H](N)C[C@H]2N)OC[C@]1(C)O (stereo partly drawn): -12
3) CCCC(=O)O[C@]1(C(=O)CO)CCC2[C@@H]3CCC4=CC(=O)CC[C@]4(C)C3[C@@H](O)C[C@@]21C (stereo partly drawn): 33.4

For this compound ( CC1=C2C(=CO[C@H](C)[C@H]2C)C(=O)C(C(=O)O)=C1O ), measured glutamate uptake change is 33.3

For this compound ( COc1ccc(-c2cc(=O)c3c(O)cc(O[C@@H]4O[C@H](CO[C@H]5O[C@H](C)[C@@H](O)[C@H](O)[C@@H]5O)[C@@H](O)[C@H](O)[C@H]4O)cc3o2)cc1O ), measured glutamate uptake change is 6.61

For this compound ( C[C@H](CCC(=O)O)[C@H]1CCC2C3C(CC[C@@]21C)[C@@]1(C)CC[C@@H](O)C[C@H]1C[C@H]3O (stereo partly drawn) ), measured glutamate uptake change is -19.3

For this compound ( NCC[C@@H](O)C(=O)N[C@@H]1C[C@H](N)[C@@H](O[C@H]2O[C@H](CN)[C@@H](O)[C@H](O)[C@H]2O)[C@H](O)[C@H]1O[C@H]1O[C@H](CO)[C@@H](O)[C@H](N)C1O (stereo partly drawn) ), measured glutamate uptake change is 9.38

For this compound ( CC(C)Oc1ccc2c(=O)cc(-c3ccccc3)oc2c1 ), measured glutamate uptake change is -13.2

For this compound ( CC(C)CC(NC(=O)CCN)C(=O)O (stereo not drawn) ), measured glutamate uptake change is 14.1

For this compound ( CC(=O)OCC(=O)[C@@]12OC3(CCCC3)O[C@@H]1CC1C3CCC4=CC(=O)C=C[C@]4(C)[C@@]3(F)[C@@H](O)C[C@@]12C (stereo partly drawn) ), measured glutamate uptake change is 27.2

For this compound ( C=C[C@@]1(C)CC(=O)[C@@]2(O)[C@](C)(O1)[C@@H](OC(C)=O)[C@@H](O)C1C(C)(C)CC[C@H](O)[C@@]12C (stereo partly drawn) ), measured glutamate uptake change is 15.8

For this compound ( CC(=O)O[C@]1(C(C)=O)CCC2C3C[C@H](C)C4=CC(=O)CC[C@]4(C)C3CC[C@@]21C (stereo partly drawn) ), measured glutamate uptake change is 30.6

For this compound ( CC(C)(C)NC[C@@H](O)COc1nsnc1N1CCOCC1 ), measured glutamate uptake change is 14.7

For this compound ( CC(C)[N+]1(C)C2CC[C@@H]1CC(OC(=O)C(CO)c1ccccc1)C2 (stereo partly drawn) ), measured glutamate uptake change is -1.05

For this compound ( COc1ccc([C@@H]2CC(=O)c3c(O)cc(O[C@@H]4O[C@H](CO[C@H]5O[C@@H](C)[C@H](O)[C@@H](O)[C@H]5O)[C@@H](O)[C@H](O)[C@H]4O)cc3O2)cc1O ), measured glutamate uptake change is 7.48
